I'd appreciate it if you could supply IC50 values for the items below.
systemTested: SARS-CoV-2 M^pro (Severe acute respiratory syndrome coronavirus 2, UniProt P0DTD1)
testName: biochemical
Assay type: biochemical
conditionNotes: Table 4
State the answer as a number, implicitly in µM.

The value of IC50 measured for the compound "N#Cc1ccccc1-c1cc(-c2cccc(Cl)c2)c(=O)n(-c2ccc[n+]([O-])c2)c1" turned out to be 15.6

The value of IC50 measured for the compound "N#Cc1ccc(F)cc1-c1cc(-c2cc(Cl)cc(OCC3CC3)c2)c(=O)n(-c2cccnc2)c1" turned out to be 0.427

The value of IC50 measured for the compound "CN(C)c1ccc(C#N)c(-c2cc(-c3cc(Cl)cc(OCC4CC4)c3)c(=O)n(-c3cccnc3)c2)c1" turned out to be 1.3

###

systemTested: SARS-CoV-2 M^pro (Severe acute respiratory syndrome coronavirus 2, UniProt P0DTD1)
testName: biochemical
Format: biochemical
conditionNotes: Table 4
I'd appreciate it if you could supply IC50 values for the items below.
State the answer as a number, implicitly in µM.

Lab note: compound O=c1ccn(-c2cc(-c3ccccc3)c(=O)n(-c3cccnc3)c2)c(=O)[nH]1 [Cmpd 1] tested on SARS-CoV-2 M^pro (Severe acute respiratory syndrome coronavirus 2, UniProt P0DTD1); recorded IC50 was 100

Lab note: compound O=c1[nH]cc(-c2cc(-c3cc(Cl)cc(OCC4CC4)c3)c(=O)n(-c3cncc4ccccc34)c2)c(=O)[nH]1 [Cmpd 66] tested on SARS-CoV-2 M^pro (Severe acute respiratory syndrome coronavirus 2, UniProt P0DTD1); recorded IC50 was 0.04

Lab note: compound O=c1ccn(-c2cc(-c3cc(Cl)cc(OCC4CC4)c3)c(=O)n(-c3cccnc3)c2)c(=O)[nH]1 [Cmpd 54] tested on SARS-CoV-2 M^pro (Severe acute respiratory syndrome coronavirus 2, UniProt P0DTD1); recorded IC50 was 1.2

###

I'd appreciate it if you could supply IC50 values for the items below.
systemTested: SARS-CoV-2 M^pro (Severe acute respiratory syndrome coronavirus 2)
testName: biochemical
Assay type: biochemical
conditionNotes: Table 4

The value of IC50 measured for the compound "COc1cc(F)cc(-c2cc(-c3c[nH]c(=O)[nH]c3=O)cn(-c3cccnc3)c2=O)c1" turned out to be 10 to 100 µM

The value of IC50 measured for the compound "N#Cc1ccccc1-c1cc(-c2cc(Cl)cc(Cl)c2)c(=O)n(-c2ccc[n+]([O-])c2)c1" turned out to be 5 to 20 µM

The value of IC50 measured for the compound "COc1cc(CCOc2cc(Cl)cc(-c3cc(-c4ccccc4C#N)cn(-c4cccnc4)c3=O)c2)cc(OC)c1" turned out to be > 1 µM

The value of IC50 measured for the compound "N#Cc1[nH]c(=O)ccc1-c1cc(-c2cccc(Cl)c2)c(=O)n(-c2cccnc2)c1" turned out to be ~10 µM

###

testName: Thermodynamic aqueous solubility, shake-flask
Type: physicochemical
conditionNotes: Britton-Robinson buffer pH 6.5, shake-flask, 48 h, 21-22° C.
I'd appreciate it if you could supply aq. sol. values for the items below.
State the answer as a number, implicitly in µg/mL.

The value of aq. sol. measured for the compound "N#Cc1ccccc1-c1cc(-c2cc(Cl)cc(OCC3CC3)c2)c(=O)n(-c2cccnc2)c1" turned out to be 3

The value of aq. sol. measured for the compound "Cn1cc(-c2cc(-c3cc(Cl)cc(OCC4CC4)c3)c(=O)n(-c3cccnc3)c2)c(=O)[nH]c1=O" turned out to be 14.2

The value of aq. sol. measured for the compound "Cc1ocnc1COc1cc(Cl)cc(-c2cc(-c3c[nH]c(=O)[nH]c3=O)cn(-c3cccnc3)c2=O)c1" turned out to be 7.6

The value of aq. sol. measured for the compound "O=c1[nH]cc(-c2cc(-c3cc(Cl)c(F)c(OCc4ccccc4Cl)c3)c(=O)n(-c3cccnc3)c2)c(=O)[nH]1" turned out to be 21.8

###

I'd appreciate it if you could supply PAMPA permeability values for the items below.
testName: PAMPA assay
conditionNotes: PBS pH 7.4, 5% DMSO, 18 hours, room temperature

The value of PAMPA permeability measured for the compound "N#Cc1ccccc1-c1cc(-c2cc(Cl)cc(OCC3CC3)c2)c(=O)n(-c2cccnc2)c1" turned out to be 4.27 ± 0.07 10^−6 cm/s

The value of PAMPA permeability measured for the compound "O=c1[nH]cc(-c2cc(-c3cc(Cl)c(F)c(OCc4ccccc4Cl)c3)c(=O)n(-c3cccnc3)c2)c(=O)[nH]1" turned out to be 0.73 ± 0.05 10^−6 cm/s

The value of PAMPA permeability measured for the compound "O=c1[nH]cc(-c2cc(-c3cc(Cl)cc(OCc4ocnc4C(F)(F)F)c3)c(=O)n(-c3cccnc3)c2)c(=O)[nH]1" turned out to be 0.57 ± 0.09 10^−6 cm/s

The value of PAMPA permeability measured for the compound "Cn1cc(-c2cc(-c3cc(Cl)cc(OCc4scnc4C(F)(F)F)c3)c(=O)n(-c3cccnc3)c2)c(=O)[nH]c1=O" turned out to be 1.16 ± 0.32 10^−6 cm/s

The value of PAMPA permeability measured for the compound "Cc1ocnc1COc1cc(Cl)cc(-c2cc(-c3ccccc3C#N)cn(-c3cccnc3)c2=O)c1" turned out to be 3.04 ± 0.09 10^−6 cm/s

###

I'd appreciate it if you could supply aq. sol. values for the items below.
testName: Thermodynamic aqueous solubility, shake-flask
Assay type: physicochemical
conditionNotes: Britton-Robinson buffer pH 6.5, shake-flask, 48 h, 21-22° C.

The value of aq. sol. measured for the compound "Cn1cc(-c2cc(-c3cc(Cl)cc(OCc4scnc4C(F)(F)F)c3)c(=O)n(-c3cccnc3)c2)c(=O)[nH]c1=O" turned out to be 24.8 ± 1.4 µg/mL

The value of aq. sol. measured for the compound "Cc1ocnc1COc1cc(Cl)cc(-c2cc(-c3ccccc3C#N)cn(-c3cccnc3)c2=O)c1" turned out to be 13.1 ± 0.3 µg/mL

The value of aq. sol. measured for the compound "Cn1cc(-c2cc(-c3cc(Cl)cc(OCCC(F)(F)F)c3)c(=O)n(-c3cccnc3)c2)c(=O)[nH]c1=O" turned out to be 57.0 ± 0.4 µg/mL

The value of aq. sol. measured for the compound "Cn1cc(-c2cc(-c3cc(Cl)cc(OCc4ocnc4C(F)(F)F)c3)c(=O)n(-c3cccnc3)c2)c(=O)[nH]c1=O" turned out to be 34.5 ± 0.3 µg/mL

The value of aq. sol. measured for the compound "Cn1cc(-c2cc(-c3cc(Cl)c(F)c(OCc4ccccc4Cl)c3)c(=O)n(-c3cccnc3)c2)c(=O)[nH]c1=O" turned out to be 116.5 ± 8.8 µg/mL

###

Test system: Vero E6 cells
conditionNotes: African green monkey
I'd appreciate it if you could supply CC50 values for the items below.

The value of CC50 measured for the compound "Cn1cc(-c2cc(-c3cc(Cl)c(F)c(OCc4ccccc4Cl)c3)c(=O)n(-c3cccnc3)c2)c(=O)[nH]c1=O" turned out to be > 32.5 µM

The value of CC50 measured for the compound "O=c1[nH]cc(-c2cc(-c3cc(Cl)cc(OCc4scnc4C(F)(F)F)c3)c(=O)n(-c3cccnc3)c2)c(=O)[nH]1" turned out to be > 100 µM

The value of CC50 measured for the compound "Cn1cc(-c2cc(-c3cc(Cl)cc(OCCC(F)(F)F)c3)c(=O)n(-c3cccnc3)c2)c(=O)[nH]c1=O" turned out to be > 100 µM

The value of CC50 measured for the compound "O=c1[nH]cc(-c2cc(-c3cc(Cl)cc(OCc4ocnc4C(F)(F)F)c3)c(=O)n(-c3cccnc3)c2)c(=O)[nH]1" turned out to be > 100 µM

The value of CC50 measured for the compound "O=c1[nH]cc(-c2cc(-c3cc(Cl)c(F)c(OCc4ccccc4Cl)c3)c(=O)n(-c3cccnc3)c2)c(=O)[nH]1" turned out to be > 80 µM

The value of CC50 measured for the compound "Cn1cc(-c2cc(-c3cc(Cl)cc(OCC4CC4)c3)c(=O)n(-c3cccnc3)c2)c(=O)[nH]c1=O" turned out to be 82 µM

The value of CC50 measured for the compound "Cn1cc(-c2cc(-c3cc(Cl)cc(OCc4scnc4C(F)(F)F)c3)c(=O)n(-c3cccnc3)c2)c(=O)[nH]c1=O" turned out to be > 100 µM

The value of CC50 measured for the compound "Cc1scnc1COc1cc(Cl)cc(-c2cc(-c3c[nH]c(=O)[nH]c3=O)cn(-c3cccnc3)c2=O)c1" turned out to be > 100 µM

###

systemTested: SARS-CoV-2 M^pro (Severe acute respiratory syndrome coronavirus 2, UniProt P0DTD1)
testName: biochemical
Type: biochemical
conditionNotes: read-out: IC50 (μM), inhibition of SARS-CoV-2 M^pro; Table 1 and text; 100 nM M^pro, FRET substrate, triplicate
observationType: IC50 (µM)
State the answer as a number, implicitly in µM.

The value of IC50 measured for the compound O=c1[nH]cc(-c2cc(-c3cc(Cl)cc(OCc4ccccc4)c3)c(=O)n(-c3cccnc3)c2)c(=O)[nH]1 [Compound 21] turned out to be 0.128
